# TEST TARGET: NaV1.6 (Homo sapiens (Human), UniProt Q9UQD0)
# Sequence (Q9UQD0 whole entry, looked up): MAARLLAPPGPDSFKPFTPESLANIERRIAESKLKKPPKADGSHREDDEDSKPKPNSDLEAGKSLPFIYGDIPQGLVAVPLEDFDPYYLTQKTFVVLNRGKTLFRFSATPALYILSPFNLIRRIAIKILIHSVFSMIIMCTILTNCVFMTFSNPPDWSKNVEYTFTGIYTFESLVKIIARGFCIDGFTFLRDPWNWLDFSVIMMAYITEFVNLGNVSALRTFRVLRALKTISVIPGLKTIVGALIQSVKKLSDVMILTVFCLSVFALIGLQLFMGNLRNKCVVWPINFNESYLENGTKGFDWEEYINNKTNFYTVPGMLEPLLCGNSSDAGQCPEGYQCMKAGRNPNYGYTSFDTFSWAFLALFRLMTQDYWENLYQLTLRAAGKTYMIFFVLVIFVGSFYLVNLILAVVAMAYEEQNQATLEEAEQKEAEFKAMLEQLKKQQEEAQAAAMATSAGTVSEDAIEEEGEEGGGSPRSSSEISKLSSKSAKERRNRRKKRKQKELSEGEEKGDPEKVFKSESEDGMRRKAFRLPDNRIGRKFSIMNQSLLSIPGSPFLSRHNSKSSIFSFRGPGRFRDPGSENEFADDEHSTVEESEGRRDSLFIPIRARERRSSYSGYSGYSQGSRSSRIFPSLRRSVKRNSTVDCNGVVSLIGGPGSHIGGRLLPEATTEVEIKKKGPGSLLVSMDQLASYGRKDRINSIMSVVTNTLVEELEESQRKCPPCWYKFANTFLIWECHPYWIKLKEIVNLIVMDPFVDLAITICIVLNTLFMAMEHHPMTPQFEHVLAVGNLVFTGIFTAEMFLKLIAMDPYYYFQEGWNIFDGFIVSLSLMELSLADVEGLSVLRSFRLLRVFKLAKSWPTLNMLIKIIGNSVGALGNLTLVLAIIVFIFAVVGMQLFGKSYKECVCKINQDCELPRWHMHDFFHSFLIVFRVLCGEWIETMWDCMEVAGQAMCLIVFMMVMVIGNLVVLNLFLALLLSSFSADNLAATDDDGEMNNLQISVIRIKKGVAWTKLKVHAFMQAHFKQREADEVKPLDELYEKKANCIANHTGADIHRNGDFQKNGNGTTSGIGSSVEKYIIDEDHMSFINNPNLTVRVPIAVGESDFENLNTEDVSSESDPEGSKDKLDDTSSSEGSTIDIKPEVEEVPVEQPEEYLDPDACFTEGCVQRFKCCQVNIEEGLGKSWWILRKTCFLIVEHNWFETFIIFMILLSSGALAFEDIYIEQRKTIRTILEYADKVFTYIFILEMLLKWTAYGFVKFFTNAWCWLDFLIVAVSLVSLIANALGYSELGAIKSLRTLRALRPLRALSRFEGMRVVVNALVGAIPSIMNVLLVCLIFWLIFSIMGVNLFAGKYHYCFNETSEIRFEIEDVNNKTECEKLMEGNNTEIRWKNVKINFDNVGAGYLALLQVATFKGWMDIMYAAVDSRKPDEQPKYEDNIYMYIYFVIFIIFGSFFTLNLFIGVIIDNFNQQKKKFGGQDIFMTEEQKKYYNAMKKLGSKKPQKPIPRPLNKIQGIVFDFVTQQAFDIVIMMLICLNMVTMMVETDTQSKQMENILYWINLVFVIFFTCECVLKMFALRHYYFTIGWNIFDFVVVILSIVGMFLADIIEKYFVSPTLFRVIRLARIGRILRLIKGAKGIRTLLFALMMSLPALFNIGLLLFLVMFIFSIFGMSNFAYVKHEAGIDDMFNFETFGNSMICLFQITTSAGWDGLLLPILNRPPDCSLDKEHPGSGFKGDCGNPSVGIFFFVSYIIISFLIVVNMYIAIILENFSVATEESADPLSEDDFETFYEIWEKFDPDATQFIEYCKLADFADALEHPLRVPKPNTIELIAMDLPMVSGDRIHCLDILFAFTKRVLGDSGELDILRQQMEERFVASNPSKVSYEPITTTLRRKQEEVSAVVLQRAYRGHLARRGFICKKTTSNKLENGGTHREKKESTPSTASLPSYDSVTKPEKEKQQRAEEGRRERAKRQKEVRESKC
# Sequence (Q07699 whole entry partner, looked up): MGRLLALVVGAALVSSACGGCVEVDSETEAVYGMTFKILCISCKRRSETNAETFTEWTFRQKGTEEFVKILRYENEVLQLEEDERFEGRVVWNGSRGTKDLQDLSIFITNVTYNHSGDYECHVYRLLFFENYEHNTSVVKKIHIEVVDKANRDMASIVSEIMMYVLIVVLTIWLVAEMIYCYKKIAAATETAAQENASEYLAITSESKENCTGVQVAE
# TEST: Sodium Influx Assay (Flux), NaV1.6
# CONDITION INFO: read-out: Flux NaV1.6 IC50; Trex HEK293 cells, ANG2 dye; arithmetic mean
Where a name gives a salt, the structure may show the parent alone.
PROPERTY: IC50

INSERT INTO assay_data (compound, property, value_reported) VALUES
  ('COc1cccc(CN2CCC(Oc3ccc(S(=O)(=O)Nc4nccs4)cc3Cl)CC2)c1', 'IC50', '525 nM');

# get_value(readout= IC50, system= NaV1.6 (Homo sapiens (Human), UniProt Q9UQD0)) for C=Cc1c(O[C@H]2CCN(Cc3ccccc3)C2)cc(F)c(S(=O)(=O)Nc2cscn2)c1F [Example 275, 2,2,2-trifluoroacetate] 738 nM

Lab request: please report IC50 under test system NaV1.6 (Homo sapiens (Human), UniProt Q9UQD0) for CN(c1cc(F)c(S(=O)(=O)Nc2cscn2)cc1Cl)[C@H]1CCN(Cc2cccc(Cl)c2F)C1 1160 nM

Tell me reported IC50 for Cc1cccc(CN2CC[C@H](N(C)c3cc(F)c(S(=O)(=O)Nc4cscn4)cc3Cl)C2)n1 , tested with NaV1.6 (Homo sapiens (Human), UniProt Q9UQD0). 857 nM

Entry Cc1cc(S(=O)(=O)Nc2cscn2)c(F)cc1OC1CCN(Cc2ccccc2)CC1 , system NaV1.6 (Homo sapiens (Human), UniProt Q9UQD0): what IC50 was measured? 708 nM

NaV1.6 (Homo sapiens (Human), UniProt Q9UQD0) / IC50 / COc1cccc(CN2CC[C@H](N(C)c3cc(F)c(S(=O)(=O)Nc4cscn4)cc3Cl)C2)n1 : value? 3200 nM

Item Cc1ccc(F)c(CN2CC[C@](C)(Nc3ccc(S(=O)(=O)Nc4cscn4)cc3Cl)C2)c1 [Example 266, formate] with NaV1.6 (Homo sapiens (Human), UniProt Q9UQD0) - IC50? 1770 nM

Data origin: patent US10246453B2
